We begin with a simple list: items and their reported growth.
# Test system: K-562 leukemia
# PROCEDURE TEXT: NCI-60 one-dose screen, 48 h (100 = growth as untreated, 0 = no growth, -100 = all killed)
# TEST CONDITIONS: 10 µM unless noted
Compounds without any hit were thinned out: in the full panel of roughly 83,000, 20% have a hit.
Form entry: value (%) — number only.

Recorded growth, per entry:
# COMPOUND, growth, %
records = [
    ("Cc1ccc(Cl)c(NS(=O)(=O)c2ccc(-c3cnc(C4CC4)o3)cc2)c1", 8.53),
    ("COc1c(CCC[P+](c2ccccc2)(c2ccccc2)c2ccccc2)cc2c(c1OC)OCO2", 12.3),
    ("COc1cc(N2C(=O)c3nccnc3C2=O)cc(OC)c1OC", 98.1),
    ("COc1cccc(-c2nc3sccn3c2-c2ccnc(NCCNS(=O)(=O)c3cccc(Cl)c3)c2)c1", 25.3),
    ("CC(=O)c1ccc(NCC(=O)Nc2ccccn2)cc1", 95.6),
]

[Q] # get_value(readout='growth', item= COC(=O)[C@]12CC[C@@H](C)[C@H](C)[C@@H]1C1=CC[C@@H]3[C@@]4(C)C(C=O)=C[C@@](C)(COC(C)=O)[C@@H]4[C@H](O)C[C@@]3(C)[C@]1(C)CC2 )
[A] 4.82

[Q] Another compound to look at: CN(C)CC1=NC2SC=C(c3ccccc3)C2C(=O)N1CC#N (centres undefined)
[A] 60

[Q] Please answer likewise for Cc1ccc(S(=O)(=O)NCC[C@@H]2C[C@H]2c2cc3ccccc3s2)cc1
[A] 85.1

[Q] Could you do the same for O=C(O)C1CCC(=O)N1C(=O)OCc1ccccc1 (centres undefined) , please?
[A] 92.4

[Q] Next entry: COc1ccc(-c2csc(C3=C(O)CN(CCCN4CCCC4=O)C3=N)n2)cc1OC
[A] 88.9

[Q] Subsequent entry: Cc1ccc2c(c1)Sc1c(ccc3ccccc13)N2
[A] 39.7

[Q] Item: COc1cc(/C=C/C(=O)c2ccc(Nc3nc(Nc4ccc(F)cc4)nc(Nc4ccc(Cl)cc4)n3)cc2)cc(OC)c1OC
[A] 35.8

[Q] Another compound to look at: O=c1c2c3c(sc2nc(N/N=C/c2ccc(Br)cc2)n1Cc1ccccc1)CCCC3
[A] 79.9

[Q] What do you have for C=C(C)[C@@H]1CC=C2c3sc(-c4ccc(C)cc4)nc3C[C@@H](C)[C@]2(C)C1 ?
[A] 97

[Q] Proceed to NC(=S)Nc1cccc(O)c1
[A] 106

[Q] Thanks! And O=C1CC(N2C(=O)/C(=C/C(Cl)=C\c3ccc([N+](=O)[O-])cc3)SC2=S)C(=O)N1c1ccc(O)cc1 (centres undefined) ?
[A] 6.6

[Q] Can you check C=C1C(=O)O[C@H]2[C@H]1CC/C(COC(=O)C(=O)c1c[nH]c3ccc(OC)cc13)=C\CC[C@@]1(C)O[C@@H]21 next?
[A] -7.42

[Q] # repeat for COc1ccc(NC(=O)CSc2nc(C)c(C(C)=O)n2-c2ccc([N+](=O)[O-])cc2)cc1
[A] 96.6

[Q] What would you report for CCOC(=O)c1csc(NC(=O)COc2cccc(/C=C3\Oc4cc(OC)ccc4C3=O)c2)n1 ?
[A] 52.1

These data points were gathered from PubChem BioAssay (NCI).
